Test: Ex vivo biodistribution with lead-203
Type: in vivo, mouse
Settings: mouse, tumor; 24 h post-injection; n = 4; read-out: Tumor uptake
attribute-measured: tissue uptake at 24 h

{"molecule": "C[C@@H](O)[C@H](NC(=O)[C@@H]1CSSC[C@H](NC(=O)[C@@H](Cc2ccccc2)NC(=O)[C@H]2CC[C@H](CNC(=O)CN3CCN(CC(N)=O)CCN(CC(N)=O)CCN(CC(N)=O)CC3)CC2)C(=O)N[C@@H](Cc2ccc(O)cc2)C(=O)N[C@H](Cc2c[nH]c3ccccc23)C(=O)N[C@@H](CCCCN)C(=O)N[C@@H]([C@@H](C)O)C(=O)N1)C(=O)O [[^203Pb]Pb-eSOMA-01, metal not drawn]", "value-observed": "2.89 %ID/g"}
{"molecule": "C[C@@H](O)[C@H](NC(=O)[C@@H]1CSSC[C@H](NC(=O)[C@@H](Cc2ccccc2)NC(=O)CN2CCC(NC(=O)CN3CCN(CC(N)=O)CCN(CC(N)=O)CCN(CC(N)=O)CC3)CC2)C(=O)N[C@@H](Cc2ccc(O)cc2)C(=O)N[C@H](Cc2c[nH]c3ccccc23)C(=O)N[C@@H](CCCCN)C(=O)N[C@@H]([C@@H](C)O)C(=O)N1)C(=O)O [[^203Pb]Pb-eSOMA-02, metal not drawn]", "value-observed": "2.54 %ID/g"}

====

Test: Biodistribution study with lead-212
Type: in vivo, mouse
Details: mouse, stomach, intravenous, 24 h block: co-injection of excess (25 nmol) unlabeled peptide; read-out: Stomach uptake
attribute-measured: tissue uptake at 24 h (%ID/g)

{"compound": "C[C@@H](O)[C@H](NC(=O)[C@@H]1CSSC[C@H](NC(=O)[C@@H](Cc2ccccc2)NC(=O)CN2CCC(NC(=O)CN3CCN(CC(N)=O)CCN(CC(N)=O)CCN(CC(N)=O)CC3)CC2)C(=O)N[C@@H](Cc2ccc(O)cc2)C(=O)N[C@H](Cc2c[nH]c3ccccc23)C(=O)N[C@@H](CCCCN)C(=O)N[C@@H]([C@@H](C)O)C(=O)N1)C(=O)O [[^212Pb]Pb-eSOMA-02, metal not drawn]", "value-observed": 0.14}
{"compound": "C[C@@H](O)[C@H](NC(=O)[C@@H]1CSSC[C@H](NC(=O)[C@@H](Cc2ccccc2)NC(=O)[C@H]2CC[C@H](CNC(=O)CN3CCN(CC(N)=O)CCN(CC(N)=O)CCN(CC(N)=O)CC3)CC2)C(=O)N[C@@H](Cc2ccc(O)cc2)C(=O)N[C@H](Cc2c[nH]c3ccccc23)C(=O)N[C@@H](CCCCN)C(=O)N[C@@H]([C@@H](C)O)C(=O)N1)C(=O)O [[^212Pb]Pb-eSOMA-01, metal not drawn]", "value-observed": 0.05}
{"compound": "C[C@@H](O)[C@H](NC(=O)[C@@H]1CSSC[C@H](NC(=O)[C@@H](Cc2ccccc2)NC(=O)CN2CCN(CC(N)=O)CCN(CC(N)=O)CCN(CC(N)=O)CC2)C(=O)N[C@@H](Cc2ccc(O)cc2)C(=O)N[C@H](Cc2c[nH]c3ccccc23)C(=O)N[C@@H](CCCCN)C(=O)N[C@@H]([C@@H](C)O)C(=O)N1)C(=O)O [[^212Pb]Pb-DOTAM-TATE, metal not drawn, reference compound]", "value-observed": 0.25}

====

Each entry below carries its recorded tissue uptake at 4 h.
Assay: Biodistribution study with lead-212
Type: in vivo, mouse
Details: mouse, liver, intravenous, 100 kBq, 4 h p.i.; n = 4; read-out: Liver uptake

{"compound": "C[C@@H](O)[C@H](NC(=O)[C@@H]1CSSC[C@H](NC(=O)[C@@H](Cc2ccccc2)NC(=O)[C@H]2CC[C@H](CNC(=O)CN3CCN(CC(N)=O)CCN(CC(N)=O)CCN(CC(N)=O)CC3)CC2)C(=O)N[C@@H](Cc2ccc(O)cc2)C(=O)N[C@H](Cc2c[nH]c3ccccc23)C(=O)N[C@@H](CCCCN)C(=O)N[C@@H]([C@@H](C)O)C(=O)N1)C(=O)O [[^212Pb]Pb-eSOMA-01, metal not drawn]", "tissue uptake at 4 h": "2.73 %ID/g"}
{"compound": "C[C@@H](O)[C@H](NC(=O)[C@@H]1CSSC[C@H](NC(=O)[C@@H](Cc2ccccc2)NC(=O)CN2CCC(NC(=O)CN3CCN(CC(N)=O)CCN(CC(N)=O)CCN(CC(N)=O)CC3)CC2)C(=O)N[C@@H](Cc2ccc(O)cc2)C(=O)N[C@H](Cc2c[nH]c3ccccc23)C(=O)N[C@@H](CCCCN)C(=O)N[C@@H]([C@@H](C)O)C(=O)N1)C(=O)O [[^212Pb]Pb-eSOMA-02, metal not drawn]", "tissue uptake at 4 h": "3.09 %ID/g"}
{"compound": "C[C@@H](O)[C@H](NC(=O)[C@@H]1CSSC[C@H](NC(=O)[C@@H](Cc2ccccc2)NC(=O)CN2CCN(CC(N)=O)CCN(CC(N)=O)CCN(CC(N)=O)CC2)C(=O)N[C@@H](Cc2ccc(O)cc2)C(=O)N[C@H](Cc2c[nH]c3ccccc23)C(=O)N[C@@H](CCCCN)C(=O)N[C@@H]([C@@H](C)O)C(=O)N1)C(=O)O [[^212Pb]Pb-DOTAM-TATE, metal not drawn, reference compound]", "tissue uptake at 4 h": "2.26 %ID/g"}

====

Test: Biodistribution study with lead-212
Assay type: in vivo, mouse
Conditions: mouse, lungs, intravenous, 100 kBq, 24 h p.i.; n = 4; read-out: Lungs uptake
Each entry below carries its recorded tissue uptake at 24 h.
attribute-measured: tissue uptake at 24 h (%ID/g)

{"compound": "C[C@@H](O)[C@H](NC(=O)[C@@H]1CSSC[C@H](NC(=O)[C@@H](Cc2ccccc2)NC(=O)CN2CCC(NC(=O)CN3CCN(CC(N)=O)CCN(CC(N)=O)CCN(CC(N)=O)CC3)CC2)C(=O)N[C@@H](Cc2ccc(O)cc2)C(=O)N[C@H](Cc2c[nH]c3ccccc23)C(=O)N[C@@H](CCCCN)C(=O)N[C@@H]([C@@H](C)O)C(=O)N1)C(=O)O [[^212Pb]Pb-eSOMA-02, metal not drawn]", "unit-string": "%ID/g", "value-observed": 0.2}
{"compound": "C[C@@H](O)[C@H](NC(=O)[C@@H]1CSSC[C@H](NC(=O)[C@@H](Cc2ccccc2)NC(=O)CN2CCN(CC(N)=O)CCN(CC(N)=O)CCN(CC(N)=O)CC2)C(=O)N[C@@H](Cc2ccc(O)cc2)C(=O)N[C@H](Cc2c[nH]c3ccccc23)C(=O)N[C@@H](CCCCN)C(=O)N[C@@H]([C@@H](C)O)C(=O)N1)C(=O)O [[^212Pb]Pb-DOTAM-TATE, metal not drawn, reference compound]", "unit-string": "%ID/g", "value-observed": 0.33}
{"compound": "C[C@@H](O)[C@H](NC(=O)[C@@H]1CSSC[C@H](NC(=O)[C@@H](Cc2ccccc2)NC(=O)[C@H]2CC[C@H](CNC(=O)CN3CCN(CC(N)=O)CCN(CC(N)=O)CCN(CC(N)=O)CC3)CC2)C(=O)N[C@@H](Cc2ccc(O)cc2)C(=O)N[C@H](Cc2c[nH]c3ccccc23)C(=O)N[C@@H](CCCCN)C(=O)N[C@@H]([C@@H](C)O)C(=O)N1)C(=O)O [[^212Pb]Pb-eSOMA-01, metal not drawn]", "unit-string": "%ID/g", "value-observed": 0.44}

====

Experiment: Biodistribution study with lead-212
Type: in vivo, mouse
Conditions: mouse, heart, intravenous, 100 kBq, 1 h p.i.; n = 4; read-out: Heart uptake
Each entry below carries its recorded tissue uptake at 1 h.

{"compound": "C[C@@H](O)[C@H](NC(=O)[C@@H]1CSSC[C@H](NC(=O)[C@@H](Cc2ccccc2)NC(=O)CN2CCN(CC(N)=O)CCN(CC(N)=O)CCN(CC(N)=O)CC2)C(=O)N[C@@H](Cc2ccc(O)cc2)C(=O)N[C@H](Cc2c[nH]c3ccccc23)C(=O)N[C@@H](CCCCN)C(=O)N[C@@H]([C@@H](C)O)C(=O)N1)C(=O)O [[^212Pb]Pb-DOTAM-TATE, metal not drawn, reference compound]", "tissue uptake at 1 h [%ID/g]": 0.61}
{"compound": "C[C@@H](O)[C@H](NC(=O)[C@@H]1CSSC[C@H](NC(=O)[C@@H](Cc2ccccc2)NC(=O)[C@H]2CC[C@H](CNC(=O)CN3CCN(CC(N)=O)CCN(CC(N)=O)CCN(CC(N)=O)CC3)CC2)C(=O)N[C@@H](Cc2ccc(O)cc2)C(=O)N[C@H](Cc2c[nH]c3ccccc23)C(=O)N[C@@H](CCCCN)C(=O)N[C@@H]([C@@H](C)O)C(=O)N1)C(=O)O [[^212Pb]Pb-eSOMA-01, metal not drawn]", "tissue uptake at 1 h [%ID/g]": 0.71}
{"compound": "C[C@@H](O)[C@H](NC(=O)[C@@H]1CSSC[C@H](NC(=O)[C@@H](Cc2ccccc2)NC(=O)CN2CCC(NC(=O)CN3CCN(CC(N)=O)CCN(CC(N)=O)CCN(CC(N)=O)CC3)CC2)C(=O)N[C@@H](Cc2ccc(O)cc2)C(=O)N[C@H](Cc2c[nH]c3ccccc23)C(=O)N[C@@H](CCCCN)C(=O)N[C@@H]([C@@H](C)O)C(=O)N1)C(=O)O [[^212Pb]Pb-eSOMA-02, metal not drawn]", "tissue uptake at 1 h [%ID/g]": 0.54}
